Values from patent US20060069132A1

test system: kochia; assay: Test C pre-/postemergence herbicide test; assay type: in vivo, Kochia scoparia; conditions: postemergence, 125 g ai/ha; scale 0 to 100
Reported values of Plant response rating, Kochia for individual entries

molecule	Plant response rating, Kochia
C=Cn1nc(C(C)(C)C)cc1C(=O)Nc1cccc(C(C)=NO)c1 [Compound 114]	80
CCn1nc(C(C)(C)C)cc1C(=O)Nc1cccc(SC(F)(F)F)c1 [Compound 130]	30
CCCCOC(=O)c1cccc(NC(=O)c2cc(C(C)(C)C)nn2CC)c1 [Compound 86]	85
CC(=NO)c1cccc(NC(=O)c2cc(C(C)(C)C)nn2CCF)c1 [Compound 115]	90
CCn1nc(C(C)(C)C)cc1C(=O)Nc1cccc(OC(F)F)c1 [Compound 332]	90

* * *

system: blackgrass; test: Test B postemergence herbicide test; type: in vivo, Alopecurus myosuroides; conditions: 125 g ai/ha; visual rating, scale 0 (no effect) to 100 (complete control); postemergence
We label by threshold. Values of Blackgrass plant response rating strictly beneath 20 are class 1. Values of 20 and up are class 0.

smiles_text	category
CCc1nn(C(C)(C)C)cc1C(=O)Nc1cc(C(=O)N(C)C)ccn1	class 0
CCn1nc(C(C)(C)C)cc1C(=O)Nc1cc(OCCF)ccc1F	class 1
CCNC(=O)c1ccc(F)c(NC(=O)c2cn(C(C)(C)C)nc2C)c1	class 1
CCNC(=O)c1ccc(F)c(NC(=O)c2nn(C(C)(C)C)nc2CC)c1	class 1
CCc1nn(C(C)(C)C)nc1C(=O)Nc1cc(C(=O)N(C)C)ccc1F	class 1
CCn1nc(C(C)(C)C)cc1C(=O)Nc1cc(OC)ccc1OC	class 1
CCn1nc(C(C)(C)C)cc1C(=O)Nc1cc(C(=S)N(C)C)ccn1	class 0
CCn1nc(C(C)(C)C)cc1C(=O)Nc1cc(OC)ccc1F	class 0
CCn1nc(C(C)(C)C)cc1C(=O)Nc1cccc(OC(F)F)c1	class 0
CCN(C)C(=O)c1ccc(F)c(NC(=O)c2nn(C(C)C)nc2C)c1	class 1
CCc1nn(C2CCCC2)nc1C(=O)Nc1cccc(C(=O)N2CC=CC2)c1	class 1
CCOC(=O)c1ccc(F)c(NC(=O)c2nn(C(C)(C)CC)nc2CC)c1	class 1

* * *

Each entry below carries its reported Plant response rating, Velvetleaf.
system: velvetleaf; assay: Test C pre-/postemergence herbicide test; format: in vivo, Abutilon theophrasti; details: 125 g ai/ha; scale 0 (no effect) to 100 (complete control); visual, 12 to 14 days; preemergence
endpoint_name: Plant response rating, Velvetleaf

smiles_text	subject_of_test	value_observed
CCn1nc(C(C)(C)C)cc1C(=O)Nc1cccc(SC)c1	velvetleaf	15
CCNC(=O)c1cccc(NC(=O)c2sc(C(C)(C)C)nc2C)c1	velvetleaf	80
CCOC(=O)c1cc(NC(=O)c2cc(C(C)(C)C)nn2CC)ccc1OC	velvetleaf	50
CCNC(=O)c1cccc(NC(=O)c2sc(C(C)(C)C)nc2CC)c1	velvetleaf	0

* * *

System: giant foxtail
Test: Test B pre-/postemergence herbicide test
Type: in vivo, Setaria faberi
Conditions: postemergence, 125 g ai/ha; scale 0 to 100
Protocol: […] At the same time, plants selected from these crop and weed species and also blackgrass (Alopecurus myosuroides Huds.), wheat (Triticum aestivum L.) and wild oat (Avena fatua L.) were treated with postemergence applications of test chemicals formulated in the same manner. […] Treated plants and controls were maintained in a greenhouse for 13 to 15 days, after which time all species were compared to controls and visually evaluated. […]
Parameter Foxtail, Giant plant response rating: see the listing below.

molecule	Foxtail, Giant plant response rating
C=CCNC(=O)c1ccc(F)c(N(C(C)=O)C(=O)c2cc(C(C)(C)C)nn2CC)c1 [Compound 443]	30
CCNC(=O)c1cncc(NC(=O)c2nn(C(C)(C)C)nc2C)c1 [Compound 427]	0
CCNC(=O)c1ccnc(NC(=O)c2nn(C(C)(C)C)nc2C)c1 [Compound 424]	20
CCOC(=O)c1cccc(NC(=O)c2nn(C(C)(C)C)nc2Br)c1 [Compound 432]	0
